# System: COLO 205 colon
# protocol-summary: NCI-60 one-dose screen, 48 h (100 = growth as untreated, 0 = no growth, -100 = all killed)
# experimental-parameters: 10 µM unless noted
This is part of a sample that, as a whole, favours compounds with a hit. Of some 83,000 tested, about 20% had one in any assay. Activity calls are given as the source filed them. How the source made its calls: active means growth percent below 10; inactive means the rest.
measured-parameter: growth

>>> experimental_value("OCCCc1ccccc1")
"94.1% (inactive)"
>>> experimental_value("ON=C(C1CCCCC1)C1CCCCC1")
"109% (inactive)"
>>> experimental_value("CC(=O)c1cc2ccccc2o1")
"114% (inactive)"
>>> experimental_value("COc1ccc2nccc(Cl)c2c1")
"105% (inactive)"
>>> experimental_value("O=C1C=CC(=O)N1Cc1ccco1")
"89.2% (inactive)"
>>> experimental_value("CC(NC(=O)CCl)c1ccccc1 (stereo not drawn)")
"104% (inactive)"
>>> experimental_value("N#Cc1c(N)nc2c(c(-c3ccc(Cl)cc3)nn2-c2ccccc2)c1C#N")
"117% [100 µM] (inactive)"
>>> experimental_value("CC(=O)C[n+]1ccccc1Sc1ccc(Cl)cc1")
"109% (inactive)"
>>> experimental_value("CNc1ccc(Cl)cc1S(=O)(=O)c1ccccc1[N+](=O)[O-]")
"117% (inactive)"
>>> experimental_value("Cc1cnc(N)s1")
"102% (inactive)"

query: Requested read-out: growth. Entry: `O=C(c1ccccc1)C1(Br)CCCCC1`
result: 129% (inactive)

query: Given `O=C(O)Cc1cc(=O)[nH]n(-c2ccccc2)c1=O` , state its recorded growth.
result: 110% (inactive)

query: # lookup: growth of `CCOC(=N)c1ccc(C(=N)OCC)cc1`
result: 103% (inactive)

query: Reported growth for CCOP(C)(=O)/C(Cc1ccc(OC)c(OC)c1)=N\O (stereo not drawn) : what is it?
result: 112% (inactive)

query: # input molecule: O=[N+]([O-])c1ccc(NC(c2ccccc2)c2ccc3cccnc3c2O)cc1 (stereo not drawn) ; wanted: its growth
result: 30.3% (inactive)

query: Fill in the blank: the reported growth of `CCC/C(=N/NC(N)=O)c1ccco1` is ____.
result: 107% (inactive)

query: Could you share which growth value was measured for `Cc1c(Cl)c(C)c(Cc2c(C)c(Cl)c(C)c(Cl)c2O)c(O)c1Cl` ?
result: 79.4% (inactive)

query: growth lookup needed for `CC(=O)Nc1ccc2oc(=O)ccc2c1` , thanks.
result: 107% (inactive)

query: // growth lookup, key: `CSc1nc(N)c(N)c(N)n1`
result: 117% (inactive)

query: Fill in: growth of `O=C1Cc2ccccc2C(=O)N1` is ___
result: 99.2% (inactive)

query: // growth lookup, key: `O=c1[nH]c(=O)c2[nH]c(=O)[nH]c2[nH]1`
result: 105% (inactive)

query: Look up growth: `O=C(O)C#Cc1ccc(Cl)cc1`
result: 99.9% (inactive)

query: Item under review: `COc1cc2c(cc1O)C(=O)CCCC2` . Reported growth?
result: 143% (inactive)
